conditions: in toluene, 298.15 K
ASSAY ENDPOINT: solubility (mole fraction)
Please respond with just the number, no unit label.

Can you share its solubility (mole fraction)? I mean this molecule: `CC(=O)Oc1ccccc1C(=O)Nc1ncc([N+](=O)[O-])s1`
0.000197

* * *

details: in ethyl acetate, 288.15 K
ASSAY ENDPOINT: solubility (mole fraction)
Please give only the number in your answer, with no unit.

solubility (mole fraction) lookup needed for `CC(=O)Oc1ccccc1C(=O)Nc1ncc([N+](=O)[O-])s1` , thanks.
0.00252

* * *

details: in 1,4-dioxane, 288.15 K
ASSAY ENDPOINT: solubility (mole fraction)
Write no unit; give the number alone.

Give the measured solubility (mole fraction) of `CC(=O)Oc1ccccc1C(=O)Nc1ncc([N+](=O)[O-])s1` .
0.0102

* * *

settings: in 2-butanone, 283.15 K
ASSAY ENDPOINT: solubility (mole fraction)

Field request: solubility (mole fraction) | item: `CC(=O)Oc1ccccc1C(=O)Nc1ncc([N+](=O)[O-])s1`
0.0066

* * *

settings: in n-propanol, 288.15 K
ASSAY ENDPOINT: solubility (mole fraction)
Returns: the value as a bare number; no unit string appended.

For `CC(=O)Oc1ccccc1C(=O)Nc1ncc([N+](=O)[O-])s1` , what is its reported solubility (mole fraction)?
0.00025

* * *

settings: in methanol, 308.15 K
ASSAY ENDPOINT: solubility (mole fraction)
Enter the number alone.

Fill blank: measured solubility (mole fraction) of the molecule `CC(=O)Oc1ccccc1C(=O)Nc1ncc([N+](=O)[O-])s1` is ____.
0.000298

* * *

conditions: in n-propanol, 313.15 K
ASSAY ENDPOINT: solubility (mole fraction)

Would you kindly share the measured solubility (mole fraction) for `CC(=O)Oc1ccccc1C(=O)Nc1ncc([N+](=O)[O-])s1` ?
0.000525

* * *

details: in 1,4-dioxane, 298.15 K
ASSAY ENDPOINT: solubility (mole fraction)
Just the number, please, no unit attached.

I'd like to know its solubility (mole fraction). The molecule in question is `CC(=O)Oc1ccccc1C(=O)Nc1ncc([N+](=O)[O-])s1`
0.0167

* * *

conditions: in ethanol, 293.15 K
ASSAY ENDPOINT: solubility (mole fraction)
# answer = number (no unit)

What does the record list as solubility (mole fraction) for `CC(=O)Oc1ccccc1C(=O)Nc1ncc([N+](=O)[O-])s1` ?
0.000246

* * *

settings: in n-butanol, 288.15 K
ASSAY ENDPOINT: solubility (mole fraction)
Note: the reply should be a number with no unit written.

I have this compound here, `CC(=O)Oc1ccccc1C(=O)Nc1ncc([N+](=O)[O-])s1` , and I need its recorded solubility (mole fraction).
0.000303

* * *

details: in acetonitrile, 288.15 K
ASSAY ENDPOINT: solubility (mole fraction)
Please state the value as a number alone, without comment.

Name the reported solubility (mole fraction) value associated with the compound `CC(=O)Oc1ccccc1C(=O)Nc1ncc([N+](=O)[O-])s1`
0.00115

* * *

details: in 2-butanone, 313.15 K
ASSAY ENDPOINT: solubility (mole fraction)
Please give the numeric answer without any surrounding text.

solubility (mole fraction) lookup needed for `CC(=O)Oc1ccccc1C(=O)Nc1ncc([N+](=O)[O-])s1` , thanks.
0.0229

* * *

settings: in toluene, 283.15 K
ASSAY ENDPOINT: solubility (mole fraction)
Write the value as a bare number.

// query solubility (mole fraction) value for entry `CC(=O)Oc1ccccc1C(=O)Nc1ncc([N+](=O)[O-])s1`
0.000123

* * *

conditions: in ethyl acetate, 273.15 K
ASSAY ENDPOINT: solubility (mole fraction)
# print the numeric value only

// lookup solubility (mole fraction) for `CC(=O)Oc1ccccc1C(=O)Nc1ncc([N+](=O)[O-])s1`
0.00185

* * *

conditions: in methanol, 293.15 K
ASSAY ENDPOINT: solubility (mole fraction)
Lab note: write the figure by itself, no unit.

Fill in the blank: the reported solubility (mole fraction) of `CC(=O)Oc1ccccc1C(=O)Nc1ncc([N+](=O)[O-])s1` is ____.
0.000202

* * *

details: in ethyl acetate, 278.15 K
ASSAY ENDPOINT: solubility (mole fraction)
Lab note: write the figure by itself, no unit.

GET /values?readout=solubility (mole fraction)&item= `CC(=O)Oc1ccccc1C(=O)Nc1ncc([N+](=O)[O-])s1`
0.00206

* * *

settings: in isopropanol, 283.15 K
ASSAY ENDPOINT: solubility (mole fraction)
Answer field: number only, no words.

What measured solubility (mole fraction) goes with `CC(=O)Oc1ccccc1C(=O)Nc1ncc([N+](=O)[O-])s1` ?
0.000243

* * *

details: in methanol, 278.15 K
ASSAY ENDPOINT: solubility (mole fraction)
Reply: number alone, nothing else.

Given `CC(=O)Oc1ccccc1C(=O)Nc1ncc([N+](=O)[O-])s1` , state its recorded solubility (mole fraction).
0.000126

* * *

conditions: in ethanol, 303.15 K
ASSAY ENDPOINT: solubility (mole fraction)

So what does the record say about solubility (mole fraction) for `CC(=O)Oc1ccccc1C(=O)Nc1ncc([N+](=O)[O-])s1` ?
0.000331

* * *

conditions: in isopropanol, 293.15 K
ASSAY ENDPOINT: solubility (mole fraction)
Write the value as a bare number.

Which measured solubility (mole fraction) value corresponds to `CC(=O)Oc1ccccc1C(=O)Nc1ncc([N+](=O)[O-])s1` ?
0.000333

* * *

settings: in acetonitrile, 293.15 K
ASSAY ENDPOINT: solubility (mole fraction)
Just the number, please.

Find the recorded solubility (mole fraction) belonging to `CC(=O)Oc1ccccc1C(=O)Nc1ncc([N+](=O)[O-])s1` and report it.
0.00127

* * *

conditions: in ethyl acetate, 308.15 K
ASSAY ENDPOINT: solubility (mole fraction)
Answer using only a numeral; do not append any unit.

So what's the measured solubility (mole fraction) for this one? `CC(=O)Oc1ccccc1C(=O)Nc1ncc([N+](=O)[O-])s1`
0.00362

* * *

details: in acetonitrile, 273.15 K
ASSAY ENDPOINT: solubility (mole fraction)
Field format: numeric only.

Give the measured solubility (mole fraction) of `CC(=O)Oc1ccccc1C(=O)Nc1ncc([N+](=O)[O-])s1` .
0.00082

* * *

settings: in DMF, 298.15 K
ASSAY ENDPOINT: solubility (mole fraction)
API note: the answer field is a bare number with no unit suffix.

Which solubility (mole fraction) reading was recorded for the compound `CC(=O)Oc1ccccc1C(=O)Nc1ncc([N+](=O)[O-])s1` ?
0.0846

* * *

details: in 1,4-dioxane, 313.15 K
ASSAY ENDPOINT: solubility (mole fraction)
Answer as a number with no unit attached.

# input compound: `CC(=O)Oc1ccccc1C(=O)Nc1ncc([N+](=O)[O-])s1` ; wanted: its solubility (mole fraction)
0.0311

* * *

settings: in acetonitrile, 303.15 K
ASSAY ENDPOINT: solubility (mole fraction)

Can you share its solubility (mole fraction)? I mean this compound: `CC(=O)Oc1ccccc1C(=O)Nc1ncc([N+](=O)[O-])s1`
0.00158

* * *

settings: in DMF, 308.15 K
ASSAY ENDPOINT: solubility (mole fraction)
// return just the number, without any unit appended

Name the recorded solubility (mole fraction) for `CC(=O)Oc1ccccc1C(=O)Nc1ncc([N+](=O)[O-])s1` .
0.097

* * *

settings: in NMP, 298.15 K
ASSAY ENDPOINT: solubility (mole fraction)
Output spec: single numeric token, no unit.

Look up solubility (mole fraction): `CC(=O)Oc1ccccc1C(=O)Nc1ncc([N+](=O)[O-])s1`
0.101

* * *

conditions: in n-butanol, 308.15 K
ASSAY ENDPOINT: solubility (mole fraction)
Enter the number alone.

What measured solubility (mole fraction) goes with `CC(=O)Oc1ccccc1C(=O)Nc1ncc([N+](=O)[O-])s1` ?
0.000541

* * *

details: in DMF, 293.15 K
ASSAY ENDPOINT: solubility (mole fraction)
Number only, please.

Item `CC(=O)Oc1ccccc1C(=O)Nc1ncc([N+](=O)[O-])s1` has what recorded solubility (mole fraction)?
0.0797

* * *

conditions: in DMF, 303.15 K
ASSAY ENDPOINT: solubility (mole fraction)
The answer should be a number; do not append a unit.

Look up solubility (mole fraction): `CC(=O)Oc1ccccc1C(=O)Nc1ncc([N+](=O)[O-])s1`
0.0901

* * *

details: in acetonitrile, 308.15 K
ASSAY ENDPOINT: solubility (mole fraction)
I only need the number, thanks.

Value lookup for solubility (mole fraction); key = `CC(=O)Oc1ccccc1C(=O)Nc1ncc([N+](=O)[O-])s1`
0.00178

* * *

conditions: in toluene, 288.15 K
ASSAY ENDPOINT: solubility (mole fraction)

What value of solubility (mole fraction) has been reported for the following compound? `CC(=O)Oc1ccccc1C(=O)Nc1ncc([N+](=O)[O-])s1`
0.000146

* * *

details: in n-propanol, 278.15 K
ASSAY ENDPOINT: solubility (mole fraction)
Enter the number alone.

Item under review: `CC(=O)Oc1ccccc1C(=O)Nc1ncc([N+](=O)[O-])s1` . Reported solubility (mole fraction)?
0.000173
